A collection of compounds and their measured nuclei count
- Procedure Details: inhibitors of E-selectin induction by TNFa, primary screen, imaging, HUVEC, immunofluorescence, MLSMR starter and 10KST1 sets (AID 487);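 also: 100% = median nuclei count of all wells on the same plate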
- Details: HUVEC TNFalpha-induced E-selectin immunofluorescence imaging, at 2 µM; measured here: cell number, toxicity

Compound	nuclei count [%]
O=C(O)C1CCCCN1S(=O)(=O)c1cccc2nsnc12 (stereo not drawn)	93.9
Cc1ccccc1-c1nn2c(-c3ccccc3)nnc2s1	149
O=C1c2ccccc2S(=O)(=O)N1CC(O)COc1ccc(Cl)cc1 (stereo not drawn)	97
COc1nc(N(C)S(=O)(=O)c2ccc(C)cc2)nc(C)c1Cl	177
CC(C)Oc1ccc2c(=O)c(-c3ccccc3)coc2c1	124
Cc1cc(/C=c2/sc3nc4ccccc4n3c2=O)c(C)n1-c1ccccn1	114
CC(C)Cc1ccc(C(C)C(=O)O)cc1 (stereo not drawn)	132
Cn1c(=O)c2c(nc(NCc3ccc4c(c3)OCO4)n2Cc2ccc(F)cc2)n(C)c1=O	152
C[C@]12CC[C@@H]3c4ccc(O)cc4C(=O)C[C@H]3[C@@H]1CC[C@@H]2O	123
COc1ccc(Nc2cc(C)nc3ccccc23)cc1	118
CCN(CC)CCN1C(=O)C(O)=C(C(=O)c2ccco2)C1c1ccccn1 (stereo not drawn)	123
C=CCOc1nc2c(c(=O)n(C)c(=O)n2C)n1Cc1ccc(Cl)cc1	137
CSc1nc(NC(C)=O)nc(C)c1Cl	97.7
Cc1cc(Cl)ccc1OCC(=O)OC(C)C(=O)N(C)C (stereo not drawn)	168
CC1(C)Cc2c(c(N3CCOCC3)nc3sc(C#N)c(N)c23)CS1	120
O=C1N[C@@H](Cc2cnc[nH]2)C(=O)N2CCC[C@@H]12	119
COc1ccc(CCN(C)CCCC(C#N)(c2cc(OC)c(OC)c(OC)c2)C(C)C)cc1OC (stereo not drawn)	114
CC(C)OC(=O)c1nn2c(C(F)(F)F)cc(-c3ccc(Br)o3)nc2c1Br	127
O=C(C1=C(O)C(=O)N(c2ncccn2)C1c1cccc(Cl)c1)c1ccco1 (stereo not drawn)	138
CCN1CCc2c(C#N)c(N3CCCCC3)nc(NCc3ccccc3)c2C1	112
Nc1nnc(-c2cccc(Cl)c2Cl)c(N)n1	139
CC(C)OC(=O)CC1=NC(=O)CS1	175
CCOP(=O)(c1ccccc1)c1nc(-c2ccccc2C)oc1N1CCCCC1 (stereo not drawn)	167

###

- Procedure Details: inhibitors of Sendai virus-induced IRF3 signaling, primary screen, TLR/RLR signaling modifier project, cell-based, Sendai virus stimulus, luciferase, 10K MLSCN set (AID 602276);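 also: firefly luciferase from ISG56 promoter only with Renilla not read in this screen; 0% = Sendai virus plus DMSO and 100% = medium plus DMSO without virus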
- Details: HEK293 RL24 IRF3 luciferase reporter, at 10 µM, stronger effect = higher value
Measure Name: inhibition (%)

Compound	Observed Measurement
CCN(CC)S(=O)(=O)c1cccc2c(N(C)C)cccc12	-4.35
c1ccc2c(c1)[nH]c1c(N3CCC4(CC3)OCCO4)ncnc12	2.08
C/C(=C\C(=O)O)CC(=O)O	2.17
Fc1cc(F)c(F)c(SCCc2ccncc2)c1F	7
Cc1nc2sccn2c(=O)c1CCN1CCC(=C(c2ccc(F)cc2)c2ccc(F)cc2)CC1	12
CCCN(CCC)C(=O)CC(c1ccc(F)cc1)c1ccco1 (configuration not stated)	19.1
Cc1cc(C)c(C#N)c(SCc2[nH]nc3c2C(c2ccccc2)C(C#N)=C(N)O3)n1 (configuration not stated)	12.1
Cc1ccc(C2/C(=C(/O)c3cnn(-c4ccccc4)c3C)C(=O)C(=O)N2CCN2CCOCC2)o1 (configuration not stated)	-28.4
Fc1ccc(C2C3=C(Nc4ncnn42)c2ccccc2OC3c2ccncc2)cc1 (configuration not stated)	17.4
CC(=O)Nc1ccccc1O	13.6
O=C(NCCO)c1cccc2c1C(=O)c1ccccc1-2	4.9
Cc1noc(NS(=O)(=O)c2ccc(N)cc2)c1C	-9.57
